Listed below: pIC50 values for each entry.
# experimental-target: N-type Ca2+ channels in IMR-32 cells (Homo sapiens, UniProt Q00975)
# Sequence (Q00975 whole entry): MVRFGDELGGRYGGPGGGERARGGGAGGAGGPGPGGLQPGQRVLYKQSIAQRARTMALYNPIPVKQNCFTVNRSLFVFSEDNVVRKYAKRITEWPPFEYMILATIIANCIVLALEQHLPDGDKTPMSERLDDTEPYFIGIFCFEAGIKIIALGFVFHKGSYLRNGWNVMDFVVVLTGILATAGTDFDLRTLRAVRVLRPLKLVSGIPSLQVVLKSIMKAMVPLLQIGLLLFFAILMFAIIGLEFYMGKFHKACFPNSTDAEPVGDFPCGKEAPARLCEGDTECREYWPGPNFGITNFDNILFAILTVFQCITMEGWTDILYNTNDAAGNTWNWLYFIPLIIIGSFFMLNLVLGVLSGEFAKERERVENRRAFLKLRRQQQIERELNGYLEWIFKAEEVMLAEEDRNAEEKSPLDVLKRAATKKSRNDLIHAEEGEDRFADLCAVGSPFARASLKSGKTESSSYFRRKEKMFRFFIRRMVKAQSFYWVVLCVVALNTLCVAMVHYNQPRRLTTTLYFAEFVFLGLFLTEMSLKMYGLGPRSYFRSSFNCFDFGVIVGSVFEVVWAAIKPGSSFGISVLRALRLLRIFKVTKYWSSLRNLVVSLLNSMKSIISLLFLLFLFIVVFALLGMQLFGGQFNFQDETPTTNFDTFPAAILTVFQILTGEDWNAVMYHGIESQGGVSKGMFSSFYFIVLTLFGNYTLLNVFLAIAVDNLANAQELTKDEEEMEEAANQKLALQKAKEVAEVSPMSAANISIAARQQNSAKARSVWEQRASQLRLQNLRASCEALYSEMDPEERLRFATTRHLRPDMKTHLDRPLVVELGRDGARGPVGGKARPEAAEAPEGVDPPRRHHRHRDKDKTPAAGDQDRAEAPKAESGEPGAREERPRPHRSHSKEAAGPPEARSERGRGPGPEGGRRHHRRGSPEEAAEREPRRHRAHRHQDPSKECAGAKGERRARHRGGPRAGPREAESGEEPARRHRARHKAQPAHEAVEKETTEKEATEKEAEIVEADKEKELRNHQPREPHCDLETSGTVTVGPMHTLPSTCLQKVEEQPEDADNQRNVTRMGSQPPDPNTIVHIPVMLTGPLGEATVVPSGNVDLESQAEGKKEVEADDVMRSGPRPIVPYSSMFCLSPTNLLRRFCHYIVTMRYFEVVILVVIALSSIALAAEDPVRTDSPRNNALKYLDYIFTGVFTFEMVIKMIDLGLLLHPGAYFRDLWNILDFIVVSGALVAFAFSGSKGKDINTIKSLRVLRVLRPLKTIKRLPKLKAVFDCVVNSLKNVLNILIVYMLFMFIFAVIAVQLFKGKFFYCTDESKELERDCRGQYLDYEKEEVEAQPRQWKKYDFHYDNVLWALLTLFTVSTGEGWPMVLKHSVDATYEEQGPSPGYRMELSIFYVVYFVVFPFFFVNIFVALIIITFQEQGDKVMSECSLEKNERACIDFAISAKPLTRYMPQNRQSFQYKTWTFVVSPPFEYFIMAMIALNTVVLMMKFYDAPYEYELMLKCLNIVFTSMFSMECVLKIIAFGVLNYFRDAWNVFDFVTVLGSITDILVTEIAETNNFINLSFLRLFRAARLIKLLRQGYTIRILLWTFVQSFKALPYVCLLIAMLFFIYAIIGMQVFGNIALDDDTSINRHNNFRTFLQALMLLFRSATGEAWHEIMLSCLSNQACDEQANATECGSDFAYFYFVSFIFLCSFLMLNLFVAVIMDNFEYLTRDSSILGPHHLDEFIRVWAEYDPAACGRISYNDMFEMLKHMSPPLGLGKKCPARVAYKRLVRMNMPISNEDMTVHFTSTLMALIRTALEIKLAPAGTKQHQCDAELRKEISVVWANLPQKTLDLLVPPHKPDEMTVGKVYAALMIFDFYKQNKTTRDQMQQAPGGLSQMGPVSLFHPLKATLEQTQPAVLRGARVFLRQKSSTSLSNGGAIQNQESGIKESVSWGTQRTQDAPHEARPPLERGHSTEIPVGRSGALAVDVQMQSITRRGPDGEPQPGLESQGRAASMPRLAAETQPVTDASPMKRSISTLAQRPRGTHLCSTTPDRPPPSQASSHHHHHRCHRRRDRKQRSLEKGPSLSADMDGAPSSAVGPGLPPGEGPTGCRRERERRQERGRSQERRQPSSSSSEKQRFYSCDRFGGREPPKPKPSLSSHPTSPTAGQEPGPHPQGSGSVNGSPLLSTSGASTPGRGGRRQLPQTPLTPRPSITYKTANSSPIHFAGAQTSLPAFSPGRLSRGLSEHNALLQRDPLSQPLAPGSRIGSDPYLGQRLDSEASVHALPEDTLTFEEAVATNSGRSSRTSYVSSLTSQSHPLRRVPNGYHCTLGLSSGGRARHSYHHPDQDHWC
# Sequence (P54289 25-956 partner limits assumed): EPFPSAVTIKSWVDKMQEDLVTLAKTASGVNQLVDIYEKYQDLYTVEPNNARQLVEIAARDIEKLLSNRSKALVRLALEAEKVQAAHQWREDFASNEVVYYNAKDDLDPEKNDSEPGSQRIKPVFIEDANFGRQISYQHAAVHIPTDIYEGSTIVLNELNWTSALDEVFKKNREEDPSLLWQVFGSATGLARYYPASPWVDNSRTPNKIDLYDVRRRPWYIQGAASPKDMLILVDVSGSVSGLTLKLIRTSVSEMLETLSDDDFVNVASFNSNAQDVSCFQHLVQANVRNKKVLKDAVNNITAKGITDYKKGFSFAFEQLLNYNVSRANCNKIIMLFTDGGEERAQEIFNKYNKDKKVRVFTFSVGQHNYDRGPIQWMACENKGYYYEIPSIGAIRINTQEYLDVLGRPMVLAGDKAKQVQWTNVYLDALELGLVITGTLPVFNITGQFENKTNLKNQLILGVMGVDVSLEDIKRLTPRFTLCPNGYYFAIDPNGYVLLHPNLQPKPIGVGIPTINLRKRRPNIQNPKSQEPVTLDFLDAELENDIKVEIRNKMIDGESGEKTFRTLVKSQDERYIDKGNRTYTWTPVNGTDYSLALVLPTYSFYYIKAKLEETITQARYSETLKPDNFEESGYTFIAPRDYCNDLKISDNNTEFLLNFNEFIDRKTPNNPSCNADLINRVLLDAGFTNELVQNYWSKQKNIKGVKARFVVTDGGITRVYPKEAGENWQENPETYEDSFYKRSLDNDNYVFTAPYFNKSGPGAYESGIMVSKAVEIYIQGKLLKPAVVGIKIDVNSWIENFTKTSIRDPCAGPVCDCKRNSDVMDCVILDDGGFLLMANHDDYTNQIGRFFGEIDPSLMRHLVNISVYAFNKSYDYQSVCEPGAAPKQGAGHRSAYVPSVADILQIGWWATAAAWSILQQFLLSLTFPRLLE
# Sequence (P54289 957-1103 partner limits assumed): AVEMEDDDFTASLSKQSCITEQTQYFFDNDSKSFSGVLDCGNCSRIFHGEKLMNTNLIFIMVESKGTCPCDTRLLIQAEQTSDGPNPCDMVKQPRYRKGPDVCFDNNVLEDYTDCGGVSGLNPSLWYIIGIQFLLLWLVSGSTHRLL
# Sequence (P54284 whole entry partner): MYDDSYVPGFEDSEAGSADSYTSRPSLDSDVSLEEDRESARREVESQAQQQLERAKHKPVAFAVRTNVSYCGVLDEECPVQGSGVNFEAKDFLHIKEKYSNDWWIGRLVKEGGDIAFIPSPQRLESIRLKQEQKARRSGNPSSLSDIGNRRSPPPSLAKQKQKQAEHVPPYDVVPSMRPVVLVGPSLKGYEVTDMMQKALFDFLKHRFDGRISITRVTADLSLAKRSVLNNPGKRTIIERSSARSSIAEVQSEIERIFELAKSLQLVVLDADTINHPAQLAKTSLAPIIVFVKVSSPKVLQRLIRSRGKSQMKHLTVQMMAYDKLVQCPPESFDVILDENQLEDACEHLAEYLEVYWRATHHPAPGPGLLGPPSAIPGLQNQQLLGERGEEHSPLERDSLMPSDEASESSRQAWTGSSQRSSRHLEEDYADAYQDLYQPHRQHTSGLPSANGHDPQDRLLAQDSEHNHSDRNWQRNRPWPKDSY
# assay: Inhibition of N-type calcium flux in IMR-32 cells (Indo-1 fluorescence, nitrendipine present)
# condition-set: IMR-32 cells, 5 μM nitrendipine, K+ depolarization
*1 amine or outer side, *2 acyl side, *3 side chain or, on linkers, in order; H or OH if unused. Where a SMILES comes first, the peptide text is derived from it. The star is where a group is joined. Piperidide = C1CCN(*)CC1; CO = O=C([*:1])[*:2]; Bn = c1ccc(C*)cc1; OtBu = CC(C)(C)O*
Kindly note that pIC50 refers to -log10 of the concentration in mol/L and answer with the value alone.

[[record]]
molecule = "CC(C)C[C@H](NC(=O)N1CCCCCC1)C(=O)N[C@@H](Cc1ccc(OCc2ccccc2)cc1)C(=O)NC1CCCCCC1"
quantity_kind = "pIC50"
reported_measurement = 5.74

[[record]]
molecule = "CC(C)C[C@H](NC(=O)N1CCCCC1)C(=O)N[C@@H](Cc1ccc(OCc2ccccc2)cc1)C(=O)OC(C)(C)C [Example 33] ({Piperidide-CO}-Leu-Tyr(Bn)-OtBu)"
quantity_kind = "pIC50"
reported_measurement = 5.66


Recorded pIC50 of CC(C)C[C@H](NC(=O)N1CCCCCC1)C(=O)N[C@@H](Cc1ccc(OCc2ccccc2)cc1)C(=O)Nc1cccc(O)c1 , please.
5.55

I am curious: what pIC50 value has been reported for CC(C)CC(NC(=O)N1CCCCCC1)C(=O)NC(Cc1ccc(OCc2ccccc2)cc1)C(=O)NC1CCCN(C)C1c1ccccc1 (stereo not shown) ?
6.66

----------
Recorded responders at 30 mg/kg values for a group of compounds are listed next.
# Tested on: DBA/2 mice
# assay: animal or person
# Format: in vivo
# condition-set: Mus musculus, iv, 0.25 h, read-out: Number of Mice Protected from Tonic Convulsions
# Procedure: Audiogenic Seizure Model in DBA/2 Mice In Vivo Biological Protocol A compound of the present invention was dissolved in water using 10% (weight/volume) Emulphor (GAF Cop., Wayne N.J. surfactant. Substances were administered by intravenous injection the retro-orbital venous sinus. […] All the male mice, 3-4 weeks old were obtained from Jackson Laboratories Bar Harbour, Me. […] Any mouse falling from the wire mesh was scored as ataxia. […]

For orientation, consider the following solved cases.
[[record]]
compound = "CC(C)C[C@H](NC(=O)N1CCCCCC1)C(=O)N[C@@H](Cc1ccc(OCc2ccccc2)cc1)C(=O)N1CCSCC1 [Example 221]"
experimental_target = "DBA/2 mice"
reported_measurement = "20%"

[[record]]
compound = "CC(C)C[C@H](NC(=O)N1CCCCCC1)C(=O)N[C@@H](Cc1ccc(OCc2ccccc2)cc1)C(=O)OC(C)(C)C [Example 1]"
experimental_target = "DBA/2 mice"
reported_measurement = "100%"


Attention now shifts to the item below.
GET /values?readout=responders at 30 mg/kg&item= CC(C)C[C@H](NC(=O)N1CCCCCC1)C(=O)N[C@@H](Cc1ccc(OCc2ccccc2)cc1)C(=O)NCCCn1ccnc1 [Example 237]
0%

----------
# experimental-target: N-type Ca2+ channels in superior cervical ganglion (SCG) neurons (Rattus norvegicus)
# Construct: from tissue
# assay: Whole-cell voltage clamp, N-type Ca2+ current in SCG neurons
# Format: cell-based
# condition-set: 10 μM
# Protocol: Electrophysiological techniques were used to measure the effects of experimental compounds on voltage-gated Ca^2+, Na^+ and K^+ channels. […] Sodium and potassium channel currents were measured from acutely dissociated SCG neurons. […]
quantity-kind: inhibition at 10 µM (%)
Respond with the bare value in %.

Observe how each entry below is paired with its result.
[[record]]
structure_as_smiles = "O=C(NCCN1CCCCC1)[C@H](Cc1ccc(OCc2ccccc2)cc1)NC(=O)[C@H](CC1CCCCC1)NC(=O)N1CCCCCC1"
quantity_kind = "inhibition at 10 µM"
endpoint_unit = "%"
reported_measurement = 47

[[record]]
structure_as_smiles = "CC(C)C[C@H](NC(=O)N1CCCCCC1)C(=O)N[C@@H](Cc1ccc(OCc2ccccc2)cc1)C(=O)N[C@H]1CCN(Cc2ccccc2)C1"
quantity_kind = "inhibition at 10 µM"
endpoint_unit = "%"
reported_measurement = 84

[[record]]
structure_as_smiles = "CC(C)C[C@@H](NC(=O)N1CCCCCC1)C(=O)N[C@@H](Cc1ccc(OCc2ccccc2)cc1)C(=O)OC(C)(C)C"
quantity_kind = "inhibition at 10 µM"
endpoint_unit = "%"
reported_measurement = 69


Could you now consider this next compound?
Bench note: what inhibition at 10 µM did CC(C)C[C@H](NC(=O)N1CCCCCC1)C(=O)N[C@H](Cc1ccc(OCc2ccccc2)cc1)C(=O)OC(C)(C)C show?
32

----------
# experimental-target: N-type Ca2+ channels in IMR-32 cells (Homo sapiens, UniProt Q00975)
# Construct: host or cells: IMR-32 cells, differentiated with dibutyryl cAMP and bromodeoxyuridine
# assay: Inhibition of N-type calcium flux in IMR-32 cells (Indo-1 fluorescence, nitrendipine present)
# Type: cell-based
# condition-set: 10 μM
# Protocol: Measurement of N-type Ca^2+ Channel Blocking Potencies of Compounds in IMR-32 Cells Using the Fluorescent Ca^2+ Indicator Indo-1 IMR-32 cells are a human tumoral cell line of neural origin. […] Calcium flux into these cells may be induced by stimulation with elevated potassium concentrations. The L-channel component of calcium flux may be blocked by adding 5 μM nitrendipine. […] Intracellular calcium concentrations are measured using the fluorescent calcium indicator Indo 1. […]
quantity-kind: Inhibition of Calcium Flux in IMR-32 Cells % Inhibition at 10 μM

Here are 3 compounds together with their reported answers.
[[record]]
compound = "CC(C)C[C@H](NC(=S)NC12CC3CC(CC(C3)C1)C2)C(=O)N[C@@H](Cc1ccc(OCc2ccccc2)cc1)C(=O)OC(C)(C)C (relative stereo)"
reported_measurement = "49%"

[[record]]
compound = "C[C@H](NC(=O)N1CCCCCC1)C(=O)N[C@@H](Cc1ccc(OCc2ccccc2)cc1)C(=O)OC(C)(C)C (relative stereo)"
reported_measurement = "96%"

[[record]]
compound = "Cc1nn(-c2ccccc2)nc1C(=O)N[C@@H](CC(C)C)C(=O)N[C@@H](Cc1ccc(OCc2ccccc2)cc1)C(=O)OC(C)(C)C (relative stereo)"
reported_measurement = "25%"


Next item in the queue.
So what does the record say about Inhibition of Calcium Flux in IMR-32 Cells % Inhibition at 10 μM for CC(C)C[C@H](NC(=O)N1CCCCCC1)C(=O)N[C@@H](Cc1ccc(OCc2ccccc2)cc1)C(=O)NCCc1c[nH]c2ccccc12 (relative stereo) ?
87%

----------
# experimental-target: N-type Ca2+ channels in IMR-32 cells (Homo sapiens)
# assay: Inhibition of N-type calcium flux in IMR-32 cells (Indo-1 fluorescence, nitrendipine present)
# condition-set: IMR-32 cells, 5 μM nitrendipine, K+ depolarization
Hi! Could you tag entries with IC50 below 1 µM as label 1, and those at or above as label 0? Much appreciated.

Worked examples, 6 compounds total:
[[record]]
compound = "CC(C)C[C@H](NC(=S)Nc1ccccc1Cl)C(=O)N[C@@H](Cc1ccc(OCc2ccccc2)cc1)C(=O)OC(C)(C)C [Example 48]"
experimental_target = "N-type Ca2+ channels in IMR-32 cells (Homo sapiens)"
label_value = "label 0"

[[record]]
compound = "CC(C)CC(NC(=O)N1CCCCCC1)C(=O)NC(Cc1ccc(OCc2ccccc2)cc1)C(=O)NC(C)C(C)C (stereo not shown) [Example 191]"
experimental_target = "N-type Ca2+ channels in IMR-32 cells (Homo sapiens)"
label_value = "label 1"

[[record]]
compound = "CC(C)C[C@H](NC(=O)N1CCCCCC1)C(=O)N[C@@H](Cc1ccc(OCc2ccccc2)cc1)C(=O)NC(CO)CO (relative stereo) [Example 257]"
experimental_target = "N-type Ca2+ channels in IMR-32 cells (Homo sapiens)"
label_value = "label 0"

[[record]]
compound = "CC(C)CC(NC(=O)N1CCCCCC1)C(=O)NC(Cc1ccc(OCc2ccccc2)cc1)C(=O)N1CCCC(CO)C1 (stereo not shown) [Example 256]"
experimental_target = "N-type Ca2+ channels in IMR-32 cells (Homo sapiens)"
label_value = "label 0"

[[record]]
compound = "CC(C)C[C@H](NC(=O)N1CCCCCC1)C(=O)N[C@@H](Cc1ccc(OCc2ccccc2)cc1)C(=O)NCc1ccccc1 [Example 263]"
experimental_target = "N-type Ca2+ channels in IMR-32 cells (Homo sapiens)"
label_value = "label 0"

[[record]]
compound = "CC(C)(C)OC(=O)[C@H](Cc1ccc(OCc2ccccc2)cc1)NC(=O)[C@H](Cc1c[nH]c2ccccc12)NC(=O)N1CCCCCC1 [Example 20]"
experimental_target = "N-type Ca2+ channels in IMR-32 cells (Homo sapiens)"
label_value = "label 1"


# check: IC50 < 1 µM for CC(C)C[C@H](NC(=S)NC1CCCCC1)C(=O)N[C@@H](Cc1ccc(OCc2ccccc2)cc1)C(=O)OC(C)(C)C [Example 47]
label 0
